Test system: dopamine (DA) receptors in the basal ganglia (corpus striatum)
Assay: Stereotyped licking and gnawing behavior rating in the rat
Type: in vivo
Details: Table 12; 3 mg/kg ip
Where a name gives a salt, the structure may show the parent alone.
Reported values of SB Score, Percent of Maximum for individual entries

# Molecule, Value Observed
records = [
    ("CCCN1CCc2cccc3c2[C@H]1Cc1cccc(OC)c1-3 [(-)11-methoxy-N--propylnoraporphine]", "36.1% of Maximum"),
    ("CCCN1CCc2cccc3c2[C@@H]1Cc1cccc(OC)c1-3 [(+)11-methoxy-N--propylnoraporphine, hydrobromide]", "0.0% of Maximum"),
    ("CCCN1CCc2cccc3c2[C@H]1Cc1cccc(O)c1-3 [(-)11-OH--N--propylnoraporphine, R(-)11-hydroxy-N-propylnoraporphine]", "76.7% of Maximum"),
]

Now for the molecule whose SB Score, Percent of Maximum we want.
Form field SB Score, Percent of Maximum, entry CCCN1CCc2cccc3c2[C@@H]1Cc1cccc(O)c1-3 [(+)11-OH--N--propylnoraporphine, hydrobromide] : 6.9% of Maximum

----------
Target: Dopamine Receptors
Format: binding, calf
Details: ligand [3H]APO (0.5 nM)
Where a name gives a salt, the structure may show the parent alone.
Measurement Kind: IC50
I'd appreciate it if you wrote the number followed by its unit.

# Compound, IC50
rows = [
    ("CCCN1CCc2cccc3c2[C@H]1Cc1ccc(O)c(O)c1-3 [(-)NPA, (R)-N-n-propylnorapomorphine]", "2.5 nM"),
    ("CCCN1CCc2cccc3c2[C@@H]1Cc1ccc(O)c(O)c1-3 [(+)NPA, Hydrochloride]", "66 nM"),
]

Now for the compound whose IC50 we want.
Form field IC50, entry CCCN1CCc2cccc3c2C1Cc1ccc(O)c(O)c1-3 (racemic) [(±)-NPA, (RS)-N-n-Propylnorapomorphine] : 5 nM
